Would you kindly list pIC50 for each of these compounds?
# subject_of_test: UniProt:O00329
# assay_text: In vitro enzyme inhibition assay (Kinase Glo), PI3Kδ
# Format: biochemical
# experimental_setup: Test (a); human recombinant enzyme; Table A; read-out: PI3Kδ inhibition, IC50
Give bare numbers, as −log10 of the molar value.

Record excerpt, results attached:
1) C[C@@H]1CN(c2cc(=O)c3cc(C(=O)N4CCOCC4)cc(C4CCCN4c4ccccc4)c3o2)CCO1 (stereo partly drawn) [Example 3.01] ... 7.82
2) C[C@@H]1CN(c2cc(=O)c3cc(C(=O)N(C)C)cc(C4CCCN4c4cccc(F)c4)c3o2)CCO1 (stereo partly drawn) [Example 3.03] ... 8.15

# ---- query compound ----
Ask: Provide value of pIC50 for this record tested with UniProt:O00329: O=C(c1cc(C2CCCN2c2cc(F)cc(F)c2)c2oc(N3CCOCC3)cc(=O)c2c1)N1CC[S+]([O-])CC1 (stereo not drawn) [Example 1.04]
Reply: 7.62

====

# subject_of_test: PI3Kδ (Homo sapiens, UniProt O00329)
# Sequence (O00329 whole entry): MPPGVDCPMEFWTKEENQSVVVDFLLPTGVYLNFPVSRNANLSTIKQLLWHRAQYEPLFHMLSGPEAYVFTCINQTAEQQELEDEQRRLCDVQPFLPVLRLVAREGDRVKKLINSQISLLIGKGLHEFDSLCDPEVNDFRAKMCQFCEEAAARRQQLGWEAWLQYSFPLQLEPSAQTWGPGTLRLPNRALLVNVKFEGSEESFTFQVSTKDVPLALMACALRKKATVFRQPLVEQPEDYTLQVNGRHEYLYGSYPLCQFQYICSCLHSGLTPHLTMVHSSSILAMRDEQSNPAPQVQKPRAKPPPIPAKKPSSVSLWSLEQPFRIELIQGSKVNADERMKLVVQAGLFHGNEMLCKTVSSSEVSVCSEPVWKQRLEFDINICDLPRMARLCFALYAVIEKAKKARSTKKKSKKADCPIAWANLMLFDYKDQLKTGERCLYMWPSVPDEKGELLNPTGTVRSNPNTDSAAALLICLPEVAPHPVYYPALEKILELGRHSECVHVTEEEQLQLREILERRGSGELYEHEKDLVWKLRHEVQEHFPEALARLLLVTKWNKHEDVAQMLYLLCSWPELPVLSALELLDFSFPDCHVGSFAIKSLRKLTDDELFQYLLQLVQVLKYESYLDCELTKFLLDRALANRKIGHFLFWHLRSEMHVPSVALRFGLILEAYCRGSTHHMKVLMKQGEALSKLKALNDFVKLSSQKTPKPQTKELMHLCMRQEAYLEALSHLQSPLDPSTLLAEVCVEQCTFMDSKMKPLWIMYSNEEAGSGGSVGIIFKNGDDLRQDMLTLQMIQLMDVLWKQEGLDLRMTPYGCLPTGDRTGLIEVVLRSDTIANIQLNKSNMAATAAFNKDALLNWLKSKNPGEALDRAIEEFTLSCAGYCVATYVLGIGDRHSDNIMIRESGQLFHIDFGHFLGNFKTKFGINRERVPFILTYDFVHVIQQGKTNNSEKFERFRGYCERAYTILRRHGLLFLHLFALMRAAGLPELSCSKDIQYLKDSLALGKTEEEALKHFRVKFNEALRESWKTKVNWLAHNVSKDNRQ
# Sequence (P27986 whole entry partner): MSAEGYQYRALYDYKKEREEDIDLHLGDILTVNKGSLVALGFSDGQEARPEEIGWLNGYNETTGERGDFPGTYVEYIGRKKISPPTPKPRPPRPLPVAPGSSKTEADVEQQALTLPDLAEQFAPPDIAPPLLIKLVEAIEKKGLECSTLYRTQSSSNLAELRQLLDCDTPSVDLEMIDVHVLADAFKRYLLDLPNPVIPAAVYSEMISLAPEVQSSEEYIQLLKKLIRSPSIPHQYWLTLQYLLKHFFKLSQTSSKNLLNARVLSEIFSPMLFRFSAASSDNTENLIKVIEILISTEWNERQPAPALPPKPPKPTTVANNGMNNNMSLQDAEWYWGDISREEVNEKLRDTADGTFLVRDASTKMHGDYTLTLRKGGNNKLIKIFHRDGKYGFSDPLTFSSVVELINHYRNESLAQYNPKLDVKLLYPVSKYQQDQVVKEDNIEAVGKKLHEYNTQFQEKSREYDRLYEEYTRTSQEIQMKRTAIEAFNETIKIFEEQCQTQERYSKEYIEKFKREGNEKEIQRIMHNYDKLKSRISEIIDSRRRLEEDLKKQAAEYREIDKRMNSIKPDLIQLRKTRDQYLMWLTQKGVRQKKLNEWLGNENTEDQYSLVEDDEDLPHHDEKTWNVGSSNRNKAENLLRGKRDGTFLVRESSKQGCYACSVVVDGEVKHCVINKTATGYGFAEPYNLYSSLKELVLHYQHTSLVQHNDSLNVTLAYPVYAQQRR
# assay_text: In vitro enzyme inhibition assay (Kinase Glo), PI3Kδ
# Format: biochemical
# experimental_setup: Test (a); approximate value; read-out: IC50 versus PI3Kδ
# Experimental: (a) In Vitro Enzyme Inhibition Assay The inhibition of PI3Kβ, PI3Kα, PI3Kγ and PI3Kδ was evaluated in a Kinase Glo based enzyme activity assay using human recombinant enzymes. The assay measures depletion of ATP after incubation with enzyme, PIP2 and ATP plus compound. ATP at the end of the reaction is detected by addition of Kinase Glo reagent, in this the Ultra Glo™ luciferase (Promega) uses the ATP as a substrate to catalyze the mono-oxygenation of luciferin and the generation of light. […]
pIC50: −log10 of the molar value.
Would you kindly list pIC50 for each of these compounds?

Record excerpt, results attached:
1) COc1cccc(N2CCC[C@@H]2c2cc(C(=O)N3CCOCC3)cc3c(=O)cc(N4CCOCC4)oc23)c1 ... ~7.82
2) CN(C)C(=O)c1cc([C@H]2CCCN2c2cccc(F)c2)c2oc(N3CCOCC3)cc(=O)c2c1 ... ~8.15
3) O=C(c1cc([C@H]2CCCN2c2cccc(F)c2)c2oc(N3CCOCC3)cc(=O)c2c1)N1CCOCC1 ... ~8.30

List the reported pIC50 of each compound below.
1. O=C(c1cc([C@H]2CCCN2c2cc(F)cc(F)c2)c2oc(N3CCOCC3)cc(=O)c2c1)N1CCC1
2. O=C(c1cc([C@@H]2CCCN2c2cc(F)cc(F)c2)c2oc(N3CCOCC3)cc(=O)c2c1)N1CCOCC1 [Example 1.03a]
3. CN(C)C(=O)c1cc(C2CCCN2c2cccc(F)c2)c2oc(N3CCOCC3)cc(=O)c2c1 (stereo not shown)
4. C[C@@H]1CN(c2cc(=O)c3cc(C(=O)N(C)C)cc(C4CCCN4c4cccc(F)c4)c3o2)CCO1 (stereo partly shown)

Reply:
~8.05
~6.55
~7.92
~8.15

====

# subject_of_test: PI3Kβ (Homo sapiens, UniProt P42338)
# Sequence (P42338 whole entry): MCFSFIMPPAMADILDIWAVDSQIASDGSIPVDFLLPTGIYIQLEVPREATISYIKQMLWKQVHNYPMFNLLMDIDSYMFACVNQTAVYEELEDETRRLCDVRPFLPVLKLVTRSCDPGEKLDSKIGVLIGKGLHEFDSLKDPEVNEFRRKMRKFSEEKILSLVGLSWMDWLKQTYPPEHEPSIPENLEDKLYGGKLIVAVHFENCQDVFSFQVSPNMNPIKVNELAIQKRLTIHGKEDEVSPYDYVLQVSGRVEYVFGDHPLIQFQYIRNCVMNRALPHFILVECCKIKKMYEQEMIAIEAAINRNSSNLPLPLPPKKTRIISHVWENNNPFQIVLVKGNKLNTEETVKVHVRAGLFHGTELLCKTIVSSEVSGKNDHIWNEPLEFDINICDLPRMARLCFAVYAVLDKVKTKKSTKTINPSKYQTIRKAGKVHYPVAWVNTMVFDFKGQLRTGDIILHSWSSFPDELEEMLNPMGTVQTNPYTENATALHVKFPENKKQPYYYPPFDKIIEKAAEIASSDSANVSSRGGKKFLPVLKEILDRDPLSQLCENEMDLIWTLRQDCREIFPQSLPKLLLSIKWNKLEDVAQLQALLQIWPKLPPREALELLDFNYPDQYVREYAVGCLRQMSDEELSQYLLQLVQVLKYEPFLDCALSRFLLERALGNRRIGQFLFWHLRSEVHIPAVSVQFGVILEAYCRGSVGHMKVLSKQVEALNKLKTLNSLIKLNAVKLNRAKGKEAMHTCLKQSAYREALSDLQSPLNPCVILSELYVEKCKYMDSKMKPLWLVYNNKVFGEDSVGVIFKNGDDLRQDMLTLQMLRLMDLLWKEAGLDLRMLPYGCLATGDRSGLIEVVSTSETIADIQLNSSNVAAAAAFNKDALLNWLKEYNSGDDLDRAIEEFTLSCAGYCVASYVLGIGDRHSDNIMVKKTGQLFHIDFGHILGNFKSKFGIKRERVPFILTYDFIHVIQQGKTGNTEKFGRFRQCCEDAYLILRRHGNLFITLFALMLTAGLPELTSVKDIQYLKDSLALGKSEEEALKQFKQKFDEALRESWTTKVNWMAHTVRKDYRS
# Sequence (P27986 whole entry partner): as the sequence (P27986 whole entry partner) above
# assay_text: In vitro enzyme inhibition assay (Kinase Glo), PI3Kβ
# Type: biochemical
# experimental_setup: Test (a); human recombinant enzyme; ATP 8 μM, PIP2 80 μM; Table A; read-out: PI3Kβ inhibition, IC50
Would you kindly list pIC50 for each of these compounds?
Answers are plain numbers, as −log10 of the molar value.

List the reported pIC50 of each compound below.
1. CN(C)C(=O)c1cc([C@H]2CCCN2c2cccc(F)c2)c2oc(N3CCOCC3)cc(=O)c2c1 [Example 1.06]
2. COc1cccc(N2CCCC2c2cc(C(=O)N(C)C)cc3c(=O)cc(N4CCOCC4)oc23)c1 (stereo not drawn) [Example 2.01]

Reply:
[8.15, 8.00]

Ask: // lookup pIC50 for C[C@@H]1CN(c2cc(=O)c3cc(C(=O)N4CCOCC4)cc(C4CCCN4c4cc(F)cc(F)c4)c3o2)CCO1 (stereo partly drawn) [Example 3.00]
Reply: 7.96

Each recorded value in this set is attributed to patent US8530470B2.
